Quick reference for pSTAT5a,b Ratio of EC50s (Rαβγ/Rβγ), human cells among some binders
target: Recombinant human IL-2 (human, UniProt P60568 21-153); assay: cell-based or functional assay

Here's what some known entries look like.
XPA.92.099 (antibody, V domains shown, Tested as purified full-length human IgG; also called mAb99; clone 99) VH: QVQLVESGGGLVKPGRSLRLSCAASGFTFNRYAMSWVRQAPGKGLEWVAMISFDGGNQYYTDSVSGRFTISRDNSKTTLFLQMDSLRTEDTAVYYCVRSPAGDWVAYFDYWGQGTLVTVSS VL: DIQMTQSPSSLSASIGDRVTIPCQASEDISNHLSWYQQKPGKAPKPLIFDASDLETGVPSRFSGSGSGTDFALTISSLRPDDFATYYCHQYHDYPSYTFGHGTKLEIKR	21
XPA.92.041 (antibody, V domains shown, Tested as purified full-length human IgG) VH: EVQLVQSGAEVKKPGESLKISCKGSGYNFDTYWIGWVRQMPGRGLEWMGTIYPADSDTRYSPSFQGQVTTSADKSISTAYLQWGSLRASDTAMYYCARFSSSAYDIWGQGTMVTVSS VL: SYELTQPPSVSVSPGQTARITCSGDALPRQFAYWYQQKPGQAPVLVIYKDTERPSGIPERFSGSSSGTTVTLTISGVQAEDEADYYCQSADSSGTYHVFGGGTQLTVLG	35
XPA.92.019 (antibody, V domains shown, Tested as purified full-length human IgG; also called mAb19) VH: EVQLVESGGGLVQPGRSLRLSCAASGFTFSYYGMHWVRQAPGKGLEWVADISNDGSNKYYADSVKGRFTISRDNSKTTLYLQMNSLRPEDTAVYYCATPYYDSSGLDYWGQGTLVTVSS VL: SYELTQPPSVSVSPGQTARITCSGDALPKRFAYWYQQKAGQAPVLVIYEDNKRPSGIPETLSGSSSGTTATLTISGAQEEDEADYYCYSTDNTGGLWVFGGGTKLTVLG	24

For the binder XPA.92.042 (antibody, V domains shown, Tested as purified full-length human IgG) VH: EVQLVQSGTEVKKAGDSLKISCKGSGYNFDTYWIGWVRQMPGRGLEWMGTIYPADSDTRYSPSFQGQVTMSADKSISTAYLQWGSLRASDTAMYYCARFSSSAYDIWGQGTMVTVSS VL: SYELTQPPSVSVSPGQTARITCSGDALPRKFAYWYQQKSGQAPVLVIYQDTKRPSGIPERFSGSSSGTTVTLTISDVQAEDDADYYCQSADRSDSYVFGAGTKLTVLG , report pSTAT5a,b Ratio of EC50s (Rαβγ/Rβγ), human cells.
45
